IC50 values, listed per item
# TARGET OR TEST SYSTEM: Vascular endothelial growth factor receptor 2 (Homo sapiens, UniProt P35968)
# EXPERIMENT DESCRIPTION: Inhibition of GST-fused recombinant VGFR2 catalytic domain expressed in baculovirus-infected Sf9 cells after 10 mins by DELFIA assay
Numbers only; they are read as nM.

[[record]]
structure_as_smiles = "CCn1cnc(-c2cc3nccc(Oc4ccc(NC(=O)N5CCN(c6ccccc6OC)C5=O)cc4F)c3s2)c1"
target_or_test_system = "Vascular endothelial growth factor receptor 2 (Homo sapiens, UniProt P35968)"
value_units = "nM"
result_value = 14


Prompt: Bench note: what IC50 did CN1CCN(CCN(C)Cc2ccc(-c3cc4nccc(Oc5ccc(NC(=O)N6CCN(c7ccccc7)C6=O)cc5F)c4s3)cc2)CC1 show?
Response: 3

Prompt: Bench note: what IC50 did O=C(Nc1ccc(Oc2ccnc3cc(-c4cn(CCN5CCCC5)cn4)sc23)c(F)c1)N1CCN(c2ccccc2)C1=O show?
Response: 20

Prompt: Bench note: what IC50 did CC(=O)c1cccc(-c2cc3nccc(Oc4ccc(NC(=O)N5CCN(c6ccccc6)C5=O)cc4F)c3s2)c1 show?
Response: 880

* * *

IC50 values, listed per item
# TARGET OR TEST SYSTEM: Vascular endothelial growth factor receptor 2 (Homo sapiens, UniProt P35968)
# EXPERIMENT DESCRIPTION: Inhibition of GST-fused recombinant VGFR2 catalytic domain expressed in baculovirus-infected Sf9 cells after 10 mins by DELFIA assay
Numbers only; they are read as µM.

[[record]]
molecule = "CNC(=O)N1CCN(Cc2ccc(-c3cc4nccc(Oc5ccc(NC(=O)N6CCN(c7ccccc7)C6=O)cc5F)c4s3)cc2)CC1"
target_or_test_system = "Vascular endothelial growth factor receptor 2 (Homo sapiens, UniProt P35968)"
value_units = "µM"
result_value = 0.008


Prompt: Bench note: what IC50 did CN(C(=O)CC(=O)Nc1ccc(Oc2ccnc3cc(-c4cn(C)cn4)sc23)c(F)c1)c1ccccc1 show?
Response: 0.01

Prompt: Bench note: what IC50 did CN(C(=O)C1(C(=O)Nc2ccc(Oc3ccnc4cc(-c5cn(C)cn5)sc34)c(F)c2)CC1)c1ccccc1 show?
Response: 0.057

Prompt: Bench note: what IC50 did O=C(Nc1ccc(Oc2ccnc3cc(-c4cn(CCCN5CCCC5)cn4)sc23)c(F)c1)N1CCN(c2ccccc2)C1=O show?
Response: 0.008

* * *

# TARGET OR TEST SYSTEM: Hepatocyte growth factor receptor (Homo sapiens)
# EXPERIMENT DESCRIPTION: biochemical
# Description: Inhibition of GST-fused recombinant c-Met catalytic domain expressed in baculovirus-infected Trichoplusia ni Hi5 cells after 30 mins by DELFIA assay
MEASUREMENT LABEL: IC50 (µM)
Numbers only; they are read as µM.

[[record]]
structure_as_smiles = "CNC(=O)N1CCN(Cc2ccc(-c3cc4nccc(Oc5ccc(NC(=O)N6CCN(c7ccccc7)C6=O)cc5F)c4s3)cc2)CC1"
target_or_test_system = "Hepatocyte growth factor receptor (Homo sapiens)"
value_units = "µM"
result_value = 0.016

[[record]]
structure_as_smiles = "CCn1ccnc1-c1cc2nccc(Oc3ccc(NC(=O)N4CCN(c5ccccc5)C4=O)cc3F)c2s1"
target_or_test_system = "Hepatocyte growth factor receptor (Homo sapiens)"
value_units = "µM"
result_value = 0.024


Prompt: Bench note: what IC50 did O=C(Nc1ccc(Oc2ccnc3cc(-c4ccc(CN5CCNCC5)cc4)sc23)c(F)c1)N1CCN(c2ccccc2)C1=O show?
Response: 0.022

Prompt: Bench note: what IC50 did CCn1cnc(-c2cc3nccc(Oc4ccc(NC(=O)N5CCN(c6ccc(F)cc6)C5=O)cc4F)c3s2)c1 show?
Response: 0.027

* * *

log10 of IC50 values, listed per item
# TARGET OR TEST SYSTEM: Vascular endothelial growth factor receptor 2 (Homo sapiens, UniProt P35968)
# EXPERIMENT DESCRIPTION: Inhibition of GST-fused recombinant VGFR2 catalytic domain expressed in baculovirus-infected Sf9 cells after 10 mins by DELFIA assay
Scale: decimal log of IC50, IC50 in nM.

Past entries and their recorded results:
[[record]]
compound = "Cn1cnc(-c2cc3nccc(Oc4ccc(NC(=O)C5(C(=O)Nc6ccccc6)CC5)cc4F)c3s2)c1"
measurement_label = "log10 of IC50"
result_value = 0.95

[[record]]
compound = "CN1CC=C(c2cc3nccc(Oc4ccc(NC(=O)N5CCN(c6ccccc6)C5=O)cc4F)c3s2)CC1"
measurement_label = "log10 of IC50"
result_value = 2.23


Prompt: Checklist item: log10 of IC50 tested on Vascular endothelial growth factor receptor 2 (Homo sapiens, UniProt P35968), entry CCn1cnc(-c2cc3nccc(Oc4ccc(NC(=O)N5CCN(c6ccc(F)cc6)C5=O)cc4F)c3s2)c1 , value?
Response: 0.85

Prompt: Checklist item: log10 of IC50 tested on Vascular endothelial growth factor receptor 2 (Homo sapiens, UniProt P35968), entry Cn1cnc(-c2cc3nccc(Oc4ccc(NC(=O)C5CCN(c6ccccc6)C5=O)cc4F)c3s2)c1 (stereo not drawn) , value?
Response: 1.59

Prompt: Checklist item: log10 of IC50 tested on Vascular endothelial growth factor receptor 2 (Homo sapiens, UniProt P35968), entry Cn1cnc(-c2cc3nccc(Oc4ccc(NC(=O)NC(=O)Cc5ccccc5)cc4F)c3s2)c1 , value?
Response: 1.57

Prompt: Checklist item: log10 of IC50 tested on Vascular endothelial growth factor receptor 2 (Homo sapiens, UniProt P35968), entry CC(C)n1cnc(-c2cc3nccc(Oc4ccc(NC(=O)C5CC(=O)N(c6ccccc6)C5)cc4F)c3s2)c1 (stereo not drawn) , value?
Response: 2.90

Prompt: Checklist item: log10 of IC50 tested on Vascular endothelial growth factor receptor 2 (Homo sapiens, UniProt P35968), entry CC(C)n1cnc(-c2cc3nccc(Oc4ccc(NC(=O)C5CCN(c6ccccc6)C5=O)cc4F)c3s2)c1 (stereo not drawn) , value?
Response: 1.20

Prompt: Checklist item: log10 of IC50 tested on Vascular endothelial growth factor receptor 2 (Homo sapiens, UniProt P35968), entry CCn1cnc(-c2cc3nccc(Oc4ccc(NC(=O)N5CCN(c6ccccc6F)C5=O)cc4F)c3s2)c1 , value?
Response: 0.48

Prompt: Checklist item: log10 of IC50 tested on Vascular endothelial growth factor receptor 2 (Homo sapiens, UniProt P35968), entry CN(C)[C@H]1CCN(C(=O)c2cc3nccc(Oc4ccc(NC(=O)N5CCN(c6ccccc6)C5=O)cc4F)c3s2)C1 , value?
Response: 1.36

Prompt: Checklist item: log10 of IC50 tested on Vascular endothelial growth factor receptor 2 (Homo sapiens, UniProt P35968), entry Cn1cnc(-c2cc3nccc(Oc4ccc(NC(=S)N5CCN(c6ccccc6)C5=O)cc4F)c3s2)c1 , value?
Response: 1.08

Prompt: Checklist item: log10 of IC50 tested on Vascular endothelial growth factor receptor 2 (Homo sapiens, UniProt P35968), entry CN1CCN(Cc2ccc(-c3cc4nccc(Oc5ccc(NC(=O)N6CCN(c7ccccc7)C6=O)cc5F)c4s3)cc2)CC1 , value?
Response: 1.08

Prompt: Checklist item: log10 of IC50 tested on Vascular endothelial growth factor receptor 2 (Homo sapiens, UniProt P35968), entry Cn1cnc(-c2cc3nccc(Oc4ccc(NC(=O)N5CCN(c6ccccc6)C5=O)cc4F)c3s2)c1 , value?
Response: 0.90

Prompt: Checklist item: log10 of IC50 tested on Vascular endothelial growth factor receptor 2 (Homo sapiens, UniProt P35968), entry CN(C)CCn1cnc(-c2cc3nccc(Oc4ccc(NC(=O)N5CCN(c6ccccc6)C5=O)cc4F)c3s2)c1 , value?
Response: 1.15

* * *

# TARGET OR TEST SYSTEM: Hepatocyte growth factor receptor (Homo sapiens, UniProt P08581)
# EXPERIMENT DESCRIPTION: biochemical
IC50 values, listed per item
Numbers only; they are read as µM.

Past entries and their recorded results:
[[record]]
structure_as_smiles = "CN1CCN(CCN(C)Cc2ccc(-c3cc4nccc(Oc5ccc(NC(=O)N6CCN(c7ccccc7)C6=O)cc5F)c4s3)cc2)CC1"
result_value = 0.028

[[record]]
structure_as_smiles = "CC(=O)c1cccc(-c2cc3nccc(Oc4ccc(NC(=O)N5CCN(c6ccccc6)C5=O)cc4F)c3s2)c1"
result_value = 0.2

[[record]]
structure_as_smiles = "O=C(Nc1ccc(Oc2ccnc3cc(-c4cn(CCCN5CCCC5)cn4)sc23)c(F)c1)N1CCN(c2ccccc2)C1=O"
result_value = 0.021


# context switch: different compound, same IC50
Prompt: Bench note: what IC50 did CN1CCN(Cc2ccc(-c3cc4nccc(Oc5ccc(NC(=O)N6CCN(c7ccccc7)C6=O)cc5F)c4s3)cc2)CC1 show?
Response: 0.029
